Tested on: Pseudomonas aeruginosa
method_description: Antibacterial activity against Pseudomonas aeruginosa ATCC 27853 after 24 hrs by two-fold serial dilution method
Format: functional
condition_notes: ATCC 27853, 24 h
Some molecules, each annotated with its measured log10(MIC).
// stored as log10 of MIC expressed in µg/mL

Illustrative cases are given below, each with its answer.
smi	endpoint_value
CCCCCCCCCCN(Cc1nc2ccccc2[nH]1)c1ccc(C)cc1	2.11
Fc1ccc(CN(Cc2nc3ccccc3[nH]2)c2cc(C(F)(F)F)cc(C(F)(F)F)c2)c(F)c1	1.20
CCn1cc(C(=O)O)c(=O)c2cc(F)c(N3CCNCC3)cc21	0.00
FC(F)(F)c1cc(N(Cc2nc3ccccc3[nH]2)Cc2ccc(Cl)cc2Cl)cc(C(F)(F)F)c1	2.11
Fc1ccc(NCc2nc3ccccc3[nH]2)c(F)c1	1.81
CC(=O)c1cc2ccc(OCc3ccc(CN(Cc4nc5ccccc5[nH]4)c4ccc(C)cc4)cc3)cc2oc1=O	2.11
Fc1ccccc1N(Cc1ccc(Cl)c(Cl)c1)Cc1nc2ccccc2[nH]1	1.81
Fc1ccccc1NCc1nc2ccccc2[nH]1	2.11
FC(F)(F)c1cc(NCc2nc3ccccc3[nH]2)cc(C(F)(F)F)c1	0.60
CCCCCCCCN(Cc1nc2ccccc2[nH]1)c1ccc(C)cc1	1.20

QUERY: What does the record list as log10(MIC) for CCCCCCCCN(Cc1nc2ccccc2[nH]1)c1ccc(C)cc1.Cl.Cl ?
RESULT: 2.11

QUERY: What does the record list as log10(MIC) for Fc1ccccc1N(CCCCn1c2ccccc2c2ccccc21)Cc1nc2ccccc2[nH]1 ?
RESULT: 1.81

QUERY: What does the record list as log10(MIC) for Fc1ccc(N(Cc2nc3ccccc3[nH]2)Cc2ccc(Cl)cc2Cl)c(F)c1 ?
RESULT: 1.81

---

Some molecules, each annotated with its measured MIC.
System: Candida
method_description: Antifungal activity against Candida mycoderma after 24 hrs by two-fold serial dilution method
Type: functional
Provide only the numeric value, understood in µg/mL.

Illustrative cases are given below, each with its answer.
smi	system_tested	unit_text	MIC
Fc1ccc(NCc2nc3ccccc3[nH]2)cc1	Candida	µg/mL	32
Cc1ccc(N(Cc2nc3ccccc3[nH]2)Cc2ccc(F)cc2F)cc1	Candida	µg/mL	32
Cc1ccc(N(Cc2nc3ccccc3[nH]2)Cc2ccccc2Cl)cc1	Candida	µg/mL	32

QUERY: What does the record list as MIC for CCCCCCCCCCCCCCCCCCN(Cc1nc2ccccc2[nH]1)c1ccc(C)cc1 ?
RESULT: 32

QUERY: What does the record list as MIC for Cc1ccc(N(Cc2ccc(Cl)c(Cl)c2)Cc2nc3ccccc3[nH]2)cc1 ?
RESULT: 128

QUERY: What does the record list as MIC for Ic1ccc(NCc2nc3ccccc3[nH]2)cc1 ?
RESULT: 128

---

Tested on: Candida
method_description: Antifungal activity against Candida mycoderma after 24 hrs by two-fold serial dilution method
Type: functional
recorded_metric: MIC
Numeric answer plus unit only.

smi	endpoint_value
FC(F)(F)c1cc(N(Cc2nc3ccccc3[nH]2)Cc2ccc(Cl)cc2Cl)cc(C(F)(F)F)c1	64 µg/mL
CCCCCCN(Cc1nc2ccccc2[nH]1)c1ccc(C)cc1	128 µg/mL
Cc1ccc(N(Cc2ccc(Cl)cc2)Cc2nc3ccccc3[nH]2)cc1	32 µg/mL
CCCN(Cc1nc2ccccc2[nH]1)c1ccc(C)cc1	128 µg/mL
Cc1ccc(N(Cc2cccc(Cl)c2)Cc2nc3ccccc3[nH]2)cc1	32 µg/mL
Fc1ccccc1N(CCCCn1c2ccccc2c2ccccc21)Cc1nc2ccccc2[nH]1	64 µg/mL
Cl.Cl.Fc1ccc(CN(Cc2nc3ccccc3[nH]2)c2cc(C(F)(F)F)cc(C(F)(F)F)c2)c(F)c1	16 µg/mL
Cc1ccc(N(Cc2nc3ccccc3[nH]2)Cc2ccc(Cl)cc2Cl)cc1	128 µg/mL

QUERY: Give the reported MIC for FC(F)(F)c1cc(NCc2nc3ccccc3[nH]2)cc(C(F)(F)F)c1 (system: Candida).
RESULT: 2 µg/mL

QUERY: Give the reported MIC for CC(=O)c1cc2ccc(OCc3ccc(CN(Cc4nc5ccccc5[nH]4)c4ccc(C)cc4)cc3)cc2oc1=O (system: Candida).
RESULT: 128 µg/mL

QUERY: Give the reported MIC for Cc1ccc(N(Cc2ccc([N+](=O)[O-])cc2)Cc2nc3ccccc3[nH]2)cc1 (system: Candida).
RESULT: 64 µg/mL

QUERY: Give the reported MIC for CCCCCCCCN(Cc1nc2ccccc2[nH]1)c1ccc(C)cc1 (system: Candida).
RESULT: 32 µg/mL

QUERY: Give the reported MIC for Fc1ccc(N(Cc2nc3ccccc3[nH]2)Cc2ccc(Cl)cc2Cl)c(F)c1 (system: Candida).
RESULT: 64 µg/mL

QUERY: Give the reported MIC for Fc1ccccc1NCc1nc2ccccc2[nH]1 (system: Candida).
RESULT: 32 µg/mL

QUERY: Give the reported MIC for OC(Cn1cncn1)(Cn1cncn1)c1ccc(F)cc1F (system: Candida).
RESULT: 4 µg/mL

QUERY: Give the reported MIC for CCCCCCCCN(Cc1nc2ccccc2[nH]1)c1ccc(C)cc1.Cl.Cl (system: Candida).
RESULT: 128 µg/mL

QUERY: Give the reported MIC for Cc1cc(=O)oc2cc(OCCCCCCN(Cc3nc4ccccc4[nH]3)c3ccc(F)cc3)ccc12 (system: Candida).
RESULT: 32 µg/mL

QUERY: Give the reported MIC for Fc1ccc(CN(Cc2nc3ccccc3[nH]2)c2ccc(Cl)cc2Cl)c(F)c1 (system: Candida).
RESULT: 32 µg/mL

QUERY: Give the reported MIC for Fc1ccc(N(Cc2nc3ccccc3[nH]2)Cc2ccc(Cl)cc2Cl)cc1 (system: Candida).
RESULT: 64 µg/mL

QUERY: Give the reported MIC for Clc1ccc(NCc2nc3ccccc3[nH]2)c(Cl)c1 (system: Candida).
RESULT: 32 µg/mL

QUERY: Give the reported MIC for Fc1ccc(NCc2nc3ccccc3[nH]2)c(F)c1 (system: Candida).
RESULT: 32 µg/mL
